# credit: patent US9126933B2

target: recombinant PDE4D2 (Homo sapiens, UniProt Q08499); experiment: PDE4 inhibitory activity screening, PDE4D2 (HTRF, cAMP substrate); details: 40 nM cAMP, 30 minutes, room temperature
Sequence (Q08499 303-809 limits assumed): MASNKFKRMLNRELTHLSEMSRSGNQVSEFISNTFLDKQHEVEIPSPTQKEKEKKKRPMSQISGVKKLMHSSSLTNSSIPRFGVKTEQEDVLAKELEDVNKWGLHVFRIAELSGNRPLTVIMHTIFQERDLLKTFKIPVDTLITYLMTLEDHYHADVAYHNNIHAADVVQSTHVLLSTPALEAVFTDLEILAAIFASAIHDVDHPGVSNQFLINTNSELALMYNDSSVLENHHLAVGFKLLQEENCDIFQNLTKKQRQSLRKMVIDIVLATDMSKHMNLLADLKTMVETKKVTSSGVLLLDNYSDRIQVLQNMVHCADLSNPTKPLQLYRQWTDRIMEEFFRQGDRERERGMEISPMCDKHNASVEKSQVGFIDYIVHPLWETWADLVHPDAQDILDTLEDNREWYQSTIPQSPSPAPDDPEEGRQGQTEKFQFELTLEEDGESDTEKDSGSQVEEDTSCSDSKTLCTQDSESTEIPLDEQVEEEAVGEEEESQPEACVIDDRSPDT
pIC50: −log10 of the molar value.
// reported pIC50 for each item listed

# molecule, pIC50
data = [
    ("COC(=O)c1ccc(Oc2cc(C(=O)Nc3c(Cl)cncc3Cl)ccc2OC(F)F)cc1", "< 6.30"),
    ("COC(=O)CNCCCOc1cc(C(=O)Nc2c(Cl)cncc2Cl)ccc1OC(F)F", "7.00 to 8.00"),
    ("O=C(Nc1c(Cl)cncc1Cl)c1ccc(OC(F)F)c(OCCCNC(CCO)C(=O)O)c1 (centres unmarked)", "< 6.30"),
    ("O=C(Nc1c(Cl)cncc1Cl)c1ccc(OC(F)F)c(OCCCCSC2CCOC2=O)c1 (centres unmarked)", "> 8.00"),
]

Recorded pIC50 of COC(=O)Cc1cccc(NCCCOc2cc(C(=O)Nc3c(Cl)cncc3Cl)ccc2OC(F)F)c1 , please.
7.00 to 8.00

GET /values?readout=pIC50&item= COCCOC(=O)CCCCOc1cc(C(=O)Nc2c(Cl)cncc2Cl)ccc1OC(F)F
7.00 to 8.00

Query (molecule): O=C(Nc1c(Cl)cncc1Cl)c1ccc(OC(F)F)c(Oc2ccc(C(=O)OCCO)cc2)c1 ; field requested: pIC50
7.00 to 8.00

So what's the measured pIC50 for this one? O=C(CCCCOc1cc(C(=O)Nc2c(Cl)cncc2Cl)ccc1OC(F)F)Oc1ccccc1
7.00 to 8.00

###

pIC50: recorded values
Target: recombinant PDE4D2 (Homo sapiens, UniProt Q08499)
Experiment: PDE4 inhibitory activity screening, PDE4D2 (HTRF, cAMP substrate)
Details: 40 nM cAMP, 30 minutes, room temperature
Procedure: Various concentrations of the test compounds were incubated with recombinant PDE4B1 or PDE4D2 (isolated from Sf9 cells), using 40 nM cAMP as enzyme substrate. Incubation time was set to 30 minutes. The reaction was carried out at room temperature. At the end of the incubation time, residual cAMP concentration was determined, using HTRF as detection method. […]
pIC50: −log10 of the molar value.

# compound, recordedMeasurement
data = [
    ("O=C(CCCCOc1cc(C(=O)Nc2c(Cl)cncc2Cl)ccc1OC(F)F)OCCN1CCCC1 [Compound 8]", "7.00 to 8.00"),
    ("O=C(Nc1c(Cl)cncc1Cl)c1ccc(OC(F)F)c(OCCCCNC(CCO)C(=O)O)c1 (stereo not shown) [Met1]", "6.30 to 7.00"),
    ("O=C(CCCCOc1cc(C(=O)Nc2c(Cl)cncc2Cl)ccc1OC(F)F)NCCSC1CCOC1=O (stereo not shown) [Compound 10]", "> 8.00"),
]

Using the record for CN(C)CCOC(=O)c1cccc(Oc2cc(C(=O)Nc3c(Cl)cncc3Cl)ccc2OC(F)F)c1 [Compound 30] , report its pIC50.
7.00 to 8.00

Returns the measured pIC50 for the input compound. Input: O=C(Nc1c(Cl)cncc1Cl)c1ccc(OC(F)F)c(Oc2cccc(C(=O)OCCO)c2)c1 [Compound 29]
7.00 to 8.00

Quick one: pIC50 of O=C(Nc1c(Cl)cncc1Cl)c1ccc(OC(F)F)c(OCCCNC2CCOC2=O)c1 (stereo not shown) [Compound 14] ?
7.00 to 8.00

Which pIC50 is reported for this compound? CCOC(=O)c1cccc(Oc2cc(C(=O)Nc3c(Cl)cncc3Cl)ccc2OC(F)F)c1 [Compound 22]
6.30 to 7.00

Find the recorded pIC50 belonging to CN(C)CCOC(=O)CCCCOc1cc(C(=O)Nc2c(Cl)cncc2Cl)ccc1OC(F)F [Compound 9] and report it.
7.00 to 8.00

###

Documented pIC50 across a set of compounds
target: recombinant PDE4B1 (Homo sapiens, UniProt Q07343); test: PDE4 inhibitory activity screening, PDE4B1 (HTRF, cAMP substrate); conditions: 40 nM cAMP, 30 minutes, room temperature
Sequence (Q07343 whole entry): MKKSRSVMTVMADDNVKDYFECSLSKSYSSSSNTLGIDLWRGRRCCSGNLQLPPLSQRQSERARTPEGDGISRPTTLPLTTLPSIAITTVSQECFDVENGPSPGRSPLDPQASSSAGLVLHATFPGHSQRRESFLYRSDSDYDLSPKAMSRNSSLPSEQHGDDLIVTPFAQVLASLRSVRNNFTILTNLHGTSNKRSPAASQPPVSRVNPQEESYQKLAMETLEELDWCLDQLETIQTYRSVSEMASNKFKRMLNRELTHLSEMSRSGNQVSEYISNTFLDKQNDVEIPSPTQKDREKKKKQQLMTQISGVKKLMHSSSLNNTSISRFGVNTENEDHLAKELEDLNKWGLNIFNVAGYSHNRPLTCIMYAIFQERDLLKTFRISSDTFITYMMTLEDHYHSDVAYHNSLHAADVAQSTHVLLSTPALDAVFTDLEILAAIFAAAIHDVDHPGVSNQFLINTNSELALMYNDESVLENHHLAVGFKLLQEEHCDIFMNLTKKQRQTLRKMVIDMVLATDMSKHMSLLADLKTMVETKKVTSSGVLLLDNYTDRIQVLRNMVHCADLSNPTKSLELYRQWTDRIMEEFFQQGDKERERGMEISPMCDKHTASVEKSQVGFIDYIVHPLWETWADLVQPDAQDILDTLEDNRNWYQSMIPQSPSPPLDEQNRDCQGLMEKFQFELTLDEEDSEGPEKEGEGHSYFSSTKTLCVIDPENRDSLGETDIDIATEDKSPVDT
pIC50: −log10 of the molar value.

# compound, pIC50
records = [
    ("COC(=O)c1ccc(SCCCOc2cc(C(=O)Nc3c(Cl)cncc3Cl)ccc2OC(F)F)cc1", "6.30 to 7.00"),
    ("O=C(CCCCOc1cc(C(=O)Nc2c(Cl)cncc2Cl)ccc1OC(F)F)OCc1ccccc1", "7.00 to 8.00"),
]

Could you tell me which pIC50 is on file for COC(=O)c1ccc(Oc2cc(C(=O)Nc3c(Cl)cncc3Cl)ccc2OC(F)F)cc1 ?
7.00 to 8.00

Can you look up the measured pIC50 of O=C(Nc1c(Cl)cncc1Cl)c1ccc(OC(F)F)c(Oc2ccc(C(=O)OCCO)cc2)c1 for me?
7.00 to 8.00

I am curious: what pIC50 value has been reported for O=C(CCCCOc1cc(C(=O)Nc2c(Cl)cncc2Cl)ccc1OC(F)F)OCCN1CCOCC1 ?
> 8.00

Sample O=C(O)CNCCCOc1cc(C(=O)Nc2c(Cl)cncc2Cl)ccc1OC(F)F — what was its pIC50?
< 6.30

What value of pIC50 has been reported for the following compound? COCCOC(=O)CCCCOc1cc(C(=O)Nc2c(Cl)cncc2Cl)ccc1OC(F)F
> 8.00

Requested read-out: pIC50. Entry: O=C(CCCCOc1cc(C(=O)Nc2c(Cl)cncc2Cl)ccc1OC(F)F)NCCSC1CCOC1=O (centres unmarked)
> 8.00

###

test: Stability towards drug metabolizing enzymes in lung S9; format: in vitro ADME; conditions: lung S9 (from smokers); human lung S9, 1 μM compound, cofactors NADPH, UDPGA, PAPS, GSH
Reported half-life at 1 μM values are given for each entry in this list.

# count of solved cases: 2
# compound, half-life at 1 μM
records = [
    ("O=C(Nc1c(Cl)cncc1Cl)c1ccc(OC(F)F)c(OCCCCNC2CCOC2=O)c1 (stereo not drawn) [Compound 11]", "> 1 h"),
    ("O=C(Nc1c(Cl)cncc1Cl)c1ccc(OC(F)F)c(OCCCCSC2CCOC2=O)c1 (stereo not drawn) [Compound 12]", "> 1 h"),
]

As a next step, examine the compound that follows.
Query: half-life at 1 μM; subject: O=C(Nc1c(Cl)cncc1Cl)c1ccc(OC(F)F)c(OCCCNC2CCOC2=O)c1 (stereo not drawn) [Compound 14]
> 1 h

###

experiment: Membrane permeability, Pampa assay; conditions: PAMPA, pH 7.4
propertyMeasured: Papp at 5 h, 10 μM (×10⁻⁶ cm/s)

Guide cases for Papp at 5 h, 10 μM, answers given:
# compound, Papp at 5 h, 10 μM / ×10⁻⁶ cm/s
rows = [
    ("O=C(CCCCOc1cc(C(=O)Nc2c(Cl)cncc2Cl)ccc1OC(F)F)NCCSC1CCOC1=O (stereo not shown) [Compound 10]", 3.7),
    ("O=C(Nc1c(Cl)cncc1Cl)c1ccc(OC(F)F)c(OCCCNC(CCO)C(=O)O)c1 (stereo not shown) [Met2]", 0.02),
    ("O=C(Nc1c(Cl)cncc1Cl)c1ccc(OC(F)F)c(OCCCCNC(CCO)C(=O)O)c1 (stereo not shown) [Met1]", 0.03),
    ("CN(C)CCOC(=O)CCCCOc1cc(C(=O)Nc2c(Cl)cncc2Cl)ccc1OC(F)F [Compound 9]", 3),
]

a. COC(=O)CNCCCOc1cc(C(=O)Nc2c(Cl)cncc2Cl)ccc1OC(F)F [Compound 15]
b. O=C(O)CNCCCOc1cc(C(=O)Nc2c(Cl)cncc2Cl)ccc1OC(F)F [Met3]
c. COCCOC(=O)CCCCOc1cc(C(=O)Nc2c(Cl)cncc2Cl)ccc1OC(F)F [Compound 7]
// smallest Papp at 5 h, 10 μM at index 0, largest at the end Answer by writing out the labels in the requested order.
b, a, c

I. CN(C)CCOC(=O)c1cccc(Oc2cc(C(=O)Nc3c(Cl)cncc3Cl)ccc2OC(F)F)c1 [Compound 30]
II. CN(C)CCOC(=O)c1ccc(Oc2cc(C(=O)Nc3c(Cl)cncc3Cl)ccc2OC(F)F)cc1 [Compound 28]
Please indicate which entry, I or II , has the lower recorded Papp at 5 h, 10 μM value. API: response body contains the label of the selected item.
I
(I: 5.3 ×10⁻⁶ cm/s, II: 7.9 ×10⁻⁶ cm/s)

I. O=C(Nc1c(Cl)cncc1Cl)c1ccc(OC(F)F)c(OCCCCNC2CCOC2=O)c1 (stereo not shown) [Compound 11]
II. O=C(CCCCOc1cc(C(=O)Nc2c(Cl)cncc2Cl)ccc1OC(F)F)OCCN1CCCC1 [Compound 8]
III. O=C(Nc1c(Cl)cncc1Cl)c1ccc(OC(F)F)c(Oc2ccc(C(=O)OCCO)cc2)c1 [Compound 27]
# rank by Papp at 5 h, 10 μM, ascending (min first) Provide the ranking by listing each label in its place in the requested order.
III, I, II

###

half-life at 1 μM values, listed per item
assay: Stability assay in human plasma; format: in vitro ADME; details: 1 μM compound

Below, each entry is followed by its recorded half-life at 1 μM result.
# compound, half-life at 1 μM
rows = [
    ("O=C(CCCCOc1cc(C(=O)Nc2c(Cl)cncc2Cl)ccc1OC(F)F)NCCSC1CCOC1=O (centres unmarked)", "< 15 min"),
    ("O=C(Nc1c(Cl)cncc1Cl)c1ccc(OC(F)F)c(OCCCCNC2CCOC2=O)c1 (centres unmarked)", "< 15 min"),
    ("COCCOC(=O)CCCCOc1cc(C(=O)Nc2c(Cl)cncc2Cl)ccc1OC(F)F", "15 to 60 min"),
    ("O=C(Nc1c(Cl)cncc1Cl)c1ccc(OC(F)F)c(OCCCCSC2CCOC2=O)c1 (centres unmarked)", "< 15 min"),
]

Could you now look at the following compound, please?
Requested read-out: half-life at 1 μM. Entry: COC(=O)Cc1cccc(NCCCOc2cc(C(=O)Nc3c(Cl)cncc3Cl)ccc2OC(F)F)c1
< 15 min
